All figures here come from the SangsterLogP compilation.

Experiment: method code SF-AS, from DOI: 10.1016/j.jct.2013.01.022
Conditions: pH 7.4
ENDPOINT_LABEL: logD

>>> print(df.to_string())
                         compound_string  endpoint_label  obs_value
0       Cc1ccc(NC2=NCCC3(CCCCC3)S2)cc1Cl            logD       2.54
1    CC(=O)c1ccc(NC2=NCCC3(CCCCC3)S2)cc1            logD       1.89
2        Clc1ccc(NC2=NCCC3(CCCCC3)S2)cc1            logD        2.4
3        Brc1ccc(NC2=NCCC3(CCCCC3)S2)cc1            logD       2.43
4       O=C(NC1=NCCC2(CCCCC2)S1)c1ccccc1            logD       1.55
5  FC(F)(F)c1ccc(NC2=NCCC3(CCCCC3)S2)cc1            logD       2.45

(P) Cc1ccc(NC2=NCCC3(CCCCC3)S2)cc1
(Q) c1ccc(NC2=NCCC3(CCCCC3)S2)cc1
In the pair P and Q , the larger recorded logD belongs to which? Your answer should be the label of the entry you select.
P
